runDescription: growth inhibition of non-replicating M. tuberculosis (AID 488890);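 note: plate controls were DMSO cells for no effect and high antibiotic wells for full effect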
runConditions: Mycobacterium tuberculosis non-replicating, at 25 µM, stronger effect = higher value
Among all 320,000 compounds or so, about 1,300 (0.41%) were called active. Inconclusive results (about 3%) are left out. A selection follows. Potency and affinity values are given separately.
testReadout: inhibition (%)
Entry rule: numbers only, all in %.

Determine from records and report inhibition for Cc1ccc(NC(=O)CCCCCCCCCCC2COCCO2)c(C)c1 (stereo not given)
-9.85

Determine from records and report inhibition for Cc1cccc(Oc2ncnc(N)c2[N+](=O)[O-])c1C
29.9

Determine from records and report inhibition for COc1ccnc2c1c(=O)n(Cc1ccc(Cl)cc1Cl)c(=O)n2C
7.37

Determine from records and report inhibition for Cc1cc(C)c(NC(=O)CN(C)S(=O)(=O)c2ccc3c(c2)n(C)c(=O)c(=O)n3C)c(C)c1
-2.46

Determine from records and report inhibition for Cn1nc(-c2ccc(OCC(N)=O)cc2)c2ccccc2c1=O
27.5

Determine from records and report inhibition for CN(C)CC/C=C1/c2ccccc2Sc2ccc(Cl)cc21
75.6

Determine from records and report inhibition for CN(C)CC/C=C1/c2cc(F)ccc2Sc2ccc(Cl)cc21
79.7

Determine from records and report inhibition for Cc1cccc(OCC(=O)NCC(C)(C)N2CCOCC2)c1
5.72

Determine from records and report inhibition for Cc1ccsc1/C=N/NC(=O)Cn1nc(C)c([N+](=O)[O-])c1C
-14.9

Determine from records and report inhibition for O=C(N/N=C/c1ccc[nH]1)c1ccc(O)cc1
46.7

Determine from records and report inhibition for Cc1cc(NC(=O)CSc2nnc(C3COc4ccccc4O3)o2)no1 (stereo not given)
1.04

Determine from records and report inhibition for O=c1[nH]c2ccccc2nc1-c1ccc(Cl)cc1
-0.23

Determine from records and report inhibition for Cc1cc(C(=O)Nn2cnc3ccccc3c2=O)ccc1[N+](=O)[O-]
-2.65

Determine from records and report inhibition for COc1ccc(-c2cn(-c3ccc(Cl)cc3)c3[n+]2CCCCC3)cc1
10.6

Determine from records and report inhibition for Cc1ccc(S(=O)(=O)/N=C(/Nc2ccc(F)cc2F)c2ccc(F)cc2)cc1
-16.3

Determine from records and report inhibition for O=C(CN1CCN(c2ccccc2F)CC1)c1c[nH]c2ccccc12
4

Determine from records and report inhibition for COc1cccc(C(=O)NCC(=O)NCc2cc(=O)n(C)c(=O)n2C)c1OC
-9.9

Determine from records and report inhibition for CN(C)C(=O)Oc1ccc2ccccc2c1Cl
5.7

Determine from records and report inhibition for Cc1cccc(NC(=S)NCC(c2cccnc2)N2CCOCC2)c1C (stereo not given)
-1.94

Determine from records and report inhibition for CNCc1ccccc1Sc1ccc(O)c(O)c1
33.3

Determine from records and report inhibition for Cc1ccc(S(=O)(=O)Nc2ncnc3ccccc23)cc1
-1.77

Determine from records and report inhibition for O=C(Nc1cccc(Br)c1)c1ccc2nc(N3C(=O)CCC3=O)sc2c1
3.99

Determine from records and report inhibition for Cc1ccc(-c2cc(C(F)(F)F)n3ncc(C(=O)N4CCCc5ccccc54)c3n2)cc1
9.06

Determine from records and report inhibition for COc1ccccc1N(C(=O)CNC(=O)c1ccco1)C(C(=O)NC1CCCC1)c1ccncc1 (stereo not given)
2.47

Determine from records and report inhibition for O=c1[nH]c2ccccc2nc1-c1ccccc1
-4.14

Determine from records and report inhibition for O=c1[nH]c(=O)n(Cc2ccco2)c(O)c1/C=N/N1CCCCC1
1.03

Determine from records and report inhibition for COc1ccc(C2Sc3nncn3N2Cc2ccc(C#N)cc2)cc1 (stereo not given)
0.03

Determine from records and report inhibition for Cc1cc(Cl)ccc1N=c1ssnc1Cl
19.9

Determine from records and report inhibition for CCCN(CC(=O)Nc1ccccc1OC)C(=O)c1ccc(=O)[nH]c1
-2.3

Determine from records and report inhibition for O=C(CCS(=O)(=O)Cc1ccccc1)NCC1CCCO1 (stereo not given)
-2.41

Determine from records and report inhibition for CC(/C=C/C1[C@H](C)C[C@H](O[C@@H]2O[C@H](CO)[C@@H](O)[C@H](O)[C@H]2O)CC1(C)C)O[C@H]1O[C@H](CO)[C@@H](O)[C@H](O)[C@H]1O (stereo not given in full)
-10.5

Determine from records and report inhibition for CC1(c2nnc(-c3ccc(Cl)cc3)o2)CC(c2cccc(Cl)c2)=NO1 (stereo not given)
79.6

Determine from records and report inhibition for O=C(Nc1ccccc1Oc1cccnc1)C1CCCN(Cc2cccc(Cl)c2)C1 (stereo not given)
16.5

Determine from records and report inhibition for O=C(c1cc(S(=O)(=O)N2CCC3(CC2)OCCO3)ccc1F)N1CCC2(CC1)OCCO2
-5.64

Determine from records and report inhibition for CC(C)Oc1ccc(Cn2c(=O)oc3ccccc32)cc1
72

Determine from records and report inhibition for COc1ccccc1C1NC(=O)CCC1[N+](=O)[O-] (stereo not given)
3.51

Determine from records and report inhibition for O=C(N/N=C/c1cc2c(cc1Cl)OCO2)c1cccc(Br)c1
-12.4

Determine from records and report inhibition for O=C(N/N=C/c1coc2ccccc2c1=O)c1ccncc1
76.8

Determine from records and report inhibition for CNC(=O)COc1ccc(-c2nn(C)c(=O)c3ccccc23)cc1
-6.01

Determine from records and report inhibition for CCCCOc1ccc(Cn2c(=O)oc3ccccc32)cc1
59

Determine from records and report inhibition for O=C(CN1CCN(S(=O)(=O)c2ccccc2F)CC1)Nc1ccccc1C(=O)c1ccccc1
27.9

Determine from records and report inhibition for O=C(N/N=C/c1ccc[nH]1)c1ccc([N+](=O)[O-])cc1
-12.7

Determine from records and report inhibition for Cc1[nH]c(=O)[nH]c(=O)c1/C=C/C(=O)O
-4.51

Determine from records and report inhibition for COc1cc2c(cc1OC)C(c1cc3cccc(C)c3[nH]c1=O)N(C(=O)c1ccco1)CC2 (stereo not given)
30.4

Determine from records and report inhibition for Cc1cc(F)ccc1NC(=O)C1CCCO1 (stereo not given)
-3.85

---

Please respond with reported inhibition for every item in the list.
runDescription: growth inhibition of non-replicating M. tuberculosis (AID 488890);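 note: plate controls were DMSO cells for no effect and high antibiotic wells for full effect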
runConditions: Mycobacterium tuberculosis non-replicating, at 25 µM, stronger effect = higher value
Screen size: about 320,000 compounds; about 1,300 (0.41%) were called active. Not shown: some 3% with an inconclusive outcome. Not all results are given here. Results with a measured potency or affinity are listed apart.
Entry rule: numbers only, all in %.

Determine from records and report inhibition for O=C1CCCC(O)=C1C=Nc1ccc(O)cc1
17.3

Determine from records and report inhibition for O=C(CNC(=O)c1ccco1)Nc1cccc(Cl)c1
-9.33

Determine from records and report inhibition for Cc1nnc(NC(=O)C2=COCCO2)s1
-3.76

Determine from records and report inhibition for Oc1cccc(Nc2nc(-c3ccccc3Cl)nc3ccccc23)c1
1.57

Determine from records and report inhibition for CCN(CC)C(=O)Cn1cc(S(=O)(=O)CC(=O)Nc2ccc(F)cc2)c2ccccc21
-1.96

Determine from records and report inhibition for COc1ccc(-c2cc(C(=O)O)no2)cc1
9.82

Determine from records and report inhibition for C=CCC1(CC=C)CCCN1C(=O)CC1C(=O)NCCN1Cc1cccc(OC)c1OC (configuration not stated)
-15.7

Determine from records and report inhibition for NC(=O)COC(=O)CNC(=O)c1sc2ccccc2c1Cl
8.7

Determine from records and report inhibition for O=C(Nc1ccc(Cl)c(C(F)(F)F)c1)c1ccco1
71.2

Determine from records and report inhibition for CCn1c(CCCCc2n[nH]c(=S)n2CC)n[nH]c1=S
-11.8

Determine from records and report inhibition for O=C1CCCC(O)=C1C=Nc1cccc(C(F)(F)F)c1
-1.35

Determine from records and report inhibition for COc1ccc(-c2cc(C(=O)NC(C)C)no2)cc1
2.59

---

runDescription: growth inhibition of non-replicating M. tuberculosis (AID 488890);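 note: plate controls were DMSO cells for no effect and high antibiotic wells for full effect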
runConditions: Mycobacterium tuberculosis non-replicating, at 25 µM, stronger effect = higher value
About 1,300 (0.41%) of roughly 320,000 compounds were called active. Another 3% or so got no clear call; they are omitted. Only a sample is shown. Entries with a potency or affinity are not part of this list.
testReadout: inhibition (%)
Entry rule: numbers only, all in %.

Determine from records and report inhibition for Cc1cccc(NC(=O)CC(=O)Nc2cccc(C)c2)c1
17.8

Determine from records and report inhibition for CCCC(=O)NC(Nc1ccc(S(=O)(=O)Nc2cc(C)on2)cc1)(C(F)(F)F)C(F)(F)F
69.8

Determine from records and report inhibition for COCc1cc(=O)[nH]c(Nc2nc3ccc(C)cc3o2)n1
-3.8

Determine from records and report inhibition for CCN1CCN(C2CC(=O)NC2=O)CC1 (stereo not drawn)
-2.18

Determine from records and report inhibition for CN(CC(=O)Nc1ccc(S(N)(=O)=O)cc1)C1CCCCC1
-0.54

Determine from records and report inhibition for Cc1ccc(S(=O)(=O)ON=C2CCN(S(=O)(=O)c3ccccc3)CC2)cc1
-9.7

Determine from records and report inhibition for COc1ccc(-c2csc(-c3ccc(O)cc3)n2)cc1
40

Determine from records and report inhibition for N#Cc1ccccc1Cn1c(=O)n(CCC(=O)NCc2ccco2)c(=O)c2ccccc21
0.99

Determine from records and report inhibition for COc1ccc(-c2nc(CCl)cs2)cc1
7.52

Determine from records and report inhibition for CC1=C/C(=N\OC(=O)/C=C/c2ccccc2)C(C)=CC1=O
54.5

Determine from records and report inhibition for Cc1ccc(NC(=O)CN(C)C2CCCCC2)cc1Cl
72.6

Determine from records and report inhibition for C=CCSc1nccc(=O)[nH]1
17.7

Determine from records and report inhibition for c1ccc(-c2nnc(OCC3CCCO3)c3ccccc23)cc1 (stereo not drawn)
4.74

Determine from records and report inhibition for CCOCCCNC(=O)C1CCC(CNS(=O)(=O)c2cccc3nsnc23)CC1 (stereo not drawn)
-10.5

Determine from records and report inhibition for CC(C)CN(C(=O)COC(=O)c1ccccn1)c1c(N)n(Cc2ccccc2)c(=O)[nH]c1=O
-2.29

Determine from records and report inhibition for COC(=O)c1c(NC(=O)c2cccc([N+](=O)[O-])c2)sc(C(N)=O)c1C
51.4

Determine from records and report inhibition for Cc1cc(C)cc(OCC(=O)Nc2cccc(S(=O)(=O)NC3=NCCC3)c2)c1
5.82

Determine from records and report inhibition for COc1ccc(Br)c(C(=O)N2CCN(S(=O)(=O)/C=C/c3ccccc3)CC2)c1
17.6

Determine from records and report inhibition for COc1cc2[nH]c(=O)n(CCC(=O)NCCC(C)C)c(=O)c2cc1OC
-11

Determine from records and report inhibition for CC(C)(C)NC(=O)C(=O)NNC(=O)c1ccccc1
10.8

Determine from records and report inhibition for COc1ccc(S(=O)(=O)/N=C2/C=CC(=O)C(C)=C2C)cc1
24.9

Determine from records and report inhibition for CCO/C=C1/C(=O)N(C(C)=O)c2ccccc21
-5.81

Determine from records and report inhibition for O=c1nc(-c2ccccc2)c2ccccc2[nH]1
-10.3
